Where do the numbers come from? From PubChem BioAssay (NCI).

Some compounds, each annotated with its measured GI50.
System: OVCAR-5 ovarian
Experiment: NCI tumour cell line growth inhibition, 48 h

Some compounds with known GI50 results, for comparison:
[[record]]
compound = "OC1CCCC2CCC[N-]C12.OC1CCCC2CCC[N-]C12.[O]=[V][OH] (stereo unspecified)"
valuekind = "GI50"
valueobserved = "9.99 µM"

[[record]]
compound = "CS(=O)(=O)c1cccc(Nc2ncc3cc(-c4ccccc4Cl)ccc3n2)c1"
valuekind = "GI50"
valueobserved = "1.88 µM"

[[record]]
compound = "Cc1ccc(Cl)c(NS(=O)(=O)c2ccc(-c3cnc(C4CC4)o3)cc2)c1"
valuekind = "GI50"
valueobserved = "0.439 µM"


State its GI50: CCOC(=O)c1c(C)nc2c(c1N)/C(=C/c1ccccn1)C(=O)N2Cc1ccccc1
1.04 µM

State its GI50: COc1cc(-c2nc3ccccc3o2)cc(CN2CCCCC2)c1O
5.31 µM

State its GI50: O=C(Nc1cc(F)c(F)cc1C(=O)O)c1ccc(-n2ccnc2)nn1
> 100 µM

State its GI50: CCOc1ccc(C(C[N+](=O)[O-])Sc2ccccc2N)cc1 (stereo unspecified)
11.2 µM

State its GI50: COc1ccc(-c2cn(-c3ccc(OC)c(OC)c3)c(=O)[nH]2)cc1
> 100 µM

State its GI50: COc1ccccc1[As]=[As]c1ccccc1OC (stereo unspecified)
0.0627 µM

State its GI50: COc1cc2ncnc(Nc3ccc(Oc4ccnc(C)c4)c(C)c3)c2cc1NC(=O)CC1CCSS1 (stereo unspecified)
1.87 µM

State its GI50: C#C[C@@]1(O)[C@@H](CO)O[C@@H](n2cc(C(F)(F)F)c3c(N)ncnc32)[C@@H]1O
1.59 µM

State its GI50: Oc1[nH]c2ccccc2c1/C=c1/ccc2c(c1)N=C(c1ccc(C(F)(F)F)cc1)N=2
10.1 µM

State its GI50: O=C(Nc1cc(Cl)cc(Cl)c1)c1cccc(NC2=C(Cl)C(=O)N(Cc3ccccc3)C2=O)c1
> 100 µM

State its GI50: Fc1ccc(-c2nn3ccccc3c2-c2ccncc2)cc1
> 25 µM

State its GI50: [N-]=[N+]=NCCCn1c2c(c3ccc([N+](=O)[O-])cc3c1=O)C(=O)c1cc(-c3ccccc3)ccc1-2
> 100 µM

State its GI50: COc1ccc2c(O)c(/C=C3\N=Nc4ncccc43)oc2c1C[C@@H]1CCNC[C@H]1F
1.02 µM

State its GI50: CCCCCCCCCCNCCSS(=O)(=O)O
2.27 µM

State its GI50: CN(C)Cc1ccc(NC(=O)c2cncc(C#Cc3cnc(N)c4ncccc34)c2)cc1F
2.08 µM

State its GI50: O=C(NCCOCCOCCOCCNC(=O)c1cc2c(o1)C(=O)c1ccccc1C2=O)NC12CC3CC(CC(C3)C1)C2
1.83 µM

State its GI50: O=C(/C=C/c1ccccn1)c1ccc(OCc2nnc(-c3ccc(Cl)cc3)o2)cc1
2.49 µM

State its GI50: CCCCOc1ccc(/C=N/Nc2cc(C)nc3ccc(Br)cc23)cc1
1.86 µM
